Target: Recombinant human Gal3 (rhGal3) (TrueBinding, #QC200361) (human, UniProt P17931 2-250); note: test concentration or dose not given here
Assay: cell-based or functional assay
quantity.measured: % inhibition of CD62L shedding (%)
Report the figure in % without appending any unit label.

Recorded results for 2 binders are shown here.
# binder, experimental.result
rows = [
    ("15G7.2A7 (antibody, human IgG4 S228P, kappa, V domains shown) VH: EVQLQQSGPELVKPGASVKISCKASGYTFTDYYMNWVKQSHGKSLEWIGDINPNNGGTNYNQKFKGKATLTVDKSSSTAYMELRSLTSEDSAVYYCTSGYGFPYWGQGTLVTVSA VL: DIQMNQSPSSLSASLGDTISITCRASQNINIWLSWYQQKPGNIPQLLIYKASNLHTGVPSRFSGSGSGTDFTLTISSLQPEDIATYYCLQGQSYPLTFGAGTKLVMKR", 110),
    ("846T.4C9 (antibody, V domains shown) VH: EVQLQQSGPELVKPGASVKMSCKASGYSFTNYIMHWVKQKPGQGLEWIGYINPYNDGTKYNEKFKGKATLTSDKSSSTAYMELSSLTSEDSAVYYCARLLFYYAMDYWGQGTSVTVSS VL: DILMTQTPSSMSVSLGDTVSITCHASQGISSNIGWLQQKPRKSFKGLIYYGTNLEDGVPSRFSGSGSGADYSLTISSLESEDFADYYCVQYDQFPWTFGGGTKLEIK", 11.2),
]

The record that follows has no % inhibition of CD62L shedding shown yet.
Enquiry: // % inhibition of CD62L shedding lookup, key: F846TC.14E4 (antibody, human IgG4 S228P, kappa, V domains shown) VH: QVTLKESGPGILQPSQTLSLTCSFSGFSLSTSGMGVGWIRQPSGKGLEWLAHIWWDDDKYYNTALKSGLTISKDASKNQVFLKIASMDTADTATYYCARNLYDGSYGYYAMDYWGQGTSVTVSS VL: DIVMTQAAFSNPVTLGTSASISCRSSKSLLHTNGITFLYWYLQKPGQSPQPLIYQMSNLASGVPDRFSSSGSGTDFTLRISRVEAEDVGVYYCAQNLELPWTFGGGTKLEINR
Return: 90.3
